biological target: Platelet-activating factor acetylhydrolase IB subunit alpha2 (Homo sapiens); test: inhibition of human PAFAH1B2 catalytic subunit – biochemical, fluorescence polarization, FP-rhodamine probe, triplicate, confirmation (AID 493034); details: recombinant PAFAH1B2, FP-rhodamine probe fluorescence polarization; at 3.39 µM; hits give high values;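 further: 0% = enzyme with DMSO and 100% = wells lacking PAFAH1B2 protein; inhibitors lower polarization by leaving the probe unbound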
The whole screen tested about 2,400 compounds, of which about 2,200 (92%) were called active. So high a share suggests a set chosen from earlier hits. The list shows a part of the results.
Think of 50% as a floor: if inhibition stands on it or above, it is 1; beneath it, -1.

Example entries begin here.
1. O=c1[nH]c(=S)n(Cc2ccc(F)cc2)c(O)c1/C=N/N1CCCCCC1 -1
2. O=c1[nH]c(=S)n(Cc2ccc(F)cc2)c(O)c1/C=N/N1CCCCC1 -1
3. O=C(O)c1c[nH]c2ccc(S(=O)(=O)N(CCCl)CCCl)cc12 -1
4. Cc1ccc(Sc2ccc(C=C3C(=O)N(C)C(=O)N(C)C3=O)o2)cc1 1

Now let's try a different one.
inhibition >= 50% for "CNC(=O)O/N=C(\N)Cc1csc2ccc(Cl)cc12" ?
1

----------
molecular target: Platelet-activating factor acetylhydrolase IB subunit alpha2 (Homo sapiens) (UniProt P68402); assay: inhibition of human PAFAH1B2 catalytic subunit – biochemical, fluorescence polarization, FP-rhodamine probe, triplicate, confirmation (AID 493034); settings: recombinant PAFAH1B2, FP-rhodamine probe fluorescence polarization; at 3.39 µM;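 further: 0% = enzyme with DMSO and 100% = wells lacking PAFAH1B2 protein; inhibitors lower polarization by leaving the probe unbound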
Sequence (P68402 whole entry, looked up): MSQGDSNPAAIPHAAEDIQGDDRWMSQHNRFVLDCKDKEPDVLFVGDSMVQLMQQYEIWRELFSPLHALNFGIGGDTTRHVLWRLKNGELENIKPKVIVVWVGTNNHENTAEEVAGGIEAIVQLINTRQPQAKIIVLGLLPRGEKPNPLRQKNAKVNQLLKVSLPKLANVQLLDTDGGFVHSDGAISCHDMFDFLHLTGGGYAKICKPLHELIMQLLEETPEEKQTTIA
The campaign covered roughly 2,400 compounds. About 2,200 (92%) were called active.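 Rule for the calls: active = mean inhibition over triplicate runs exceeds the cutoff derived for the earlier primary screen (cut at about 25% in these data); inactive = the rest.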 The set was probably picked from earlier hits. The list shows a part of the results.
Outcomes you can answer with include only these: y for active, n for inactive

Example entries begin here.
compound	assigned-label
O=P(NS(=O)(=O)c1ccc(Cl)cc1)(Oc1ccccc1)Oc1ccccc1	y
O=C(Cc1ccc(N(CCCl)CCCl)cc1)NC(Cc1ccc(Cl)cc1)C(=O)O (configuration not stated)	y
O=C(Cc1ccccc1)NC(Cc1ccc(Cl)cc1)C(=O)O (configuration not stated)	y
CNC(=O)Oc1ccc(C(=O)N2c3ccccc3NC(=O)C2C)cc1 (configuration not stated)	y
Nc1ccc2cc(Br)ccc2c1	y
O=C1CC(=O)N(Cc2ccccc2)C(=S)N1	n
Cc1ccc2c(c1)=NC(=O)/C(=C/c1c(O)[nH]c(=O)[nH]c1=O)C=2	n
O=P(O)(Oc1ccccc1)OC(c1ccccc1)C(F)(F)C(F)(F)F (configuration not stated)	y
Cc1ccc(S(=O)(=O)NP(=O)(Oc2ccccc2)Oc2ccccc2)cc1	y
Cn1c(O)c(/C=C2\N=c3ccccc3=C2CCNC(=S)NC2CC2)c(=O)n(C)c1=O	y

Status in this test for "O=C(OCCN1CCOCC1)C1(c2ccccc2)CCCC1" ?
y

Status in this test for NP(=O)(OCCCc1ccccc1)Oc1ccccc1 (configuration not stated) ?
y

Status in this test for "O=C(O)C1(c2ccc(Cl)cc2)CCC1" ?
y

Status in this test for "O=S(=O)(c1ccc(Cl)cc1)c1ccc(Cl)cc1" ?
y

Status in this test for "Nc1ccc(C2(c3ccc(N)cc3)CCCCC2)cc1" ?
y

Status in this test for "O=C1CN=C(c2ccccc2)c2ccccc2N1Cc1ccc(C(F)(F)F)cc1" ?
y

Status in this test for "O=P(NS(=O)(=O)c1ccc(Br)cc1)(Oc1ccccc1)Oc1ccccc1" ?
y
